Test method notes: Volume of distribution at steady state in mouse
Assay type: ADME, organism-based
Measurement context: in vivo, read-out: Vdss
Measurement label: Vd (L/kg)

# Smiles input, Obs value
data = [
    ("CNC(=O)c1ccc2[nH]nc(Cc3ccc4c(cnn4C)c3)c2c1", 0.69),
]

* * *

Test method notes: Volume of distribution at steady state in rat
Type: ADME, organism-based
Measurement context: in vivo, read-out: Vdss

# Smiles input, Vd, L/kg
records = [
    ("CNC(=O)c1ccc2[nH]nc(Cc3ccc4c(cnn4C)c3)c2c1", 0.85),
]

* * *

Test method notes: Solubility of the compound in FaSSIF at pH 6.4
Format: physicochemical

# Smiles input, Unit string, solubility
measured = [
    ("CNC(=O)c1ccc2[nH]nc(Cc3ccc4c(cnn4C)c3)c2c1", "µg/mL", 32),
]
